Test system: TK-10 renal
Test: NCI-60 one-dose screen, 48 h (100 = growth as untreated, 0 = no growth, -100 = all killed)
Settings: 10 µM unless noted
Experimental: Growth inhibition of the TK-10 human tumor cell line is measured as a screen for anti-cancer activity. Cells are grown in 96 well plates and exposed to the test compound for 48 hours. Compounds are tested at a single concentration, which is 10^-5 M for most compounds. The reported endpoint is percent growth (GI% or GIPRCNT), where numbers from 0 - 100% represent growth inhibition, and numbers from -100% - 0 represent cell death. For example, a value of 40 represents 60% growth inhibition. […]
The panel holds about 83,000 compounds, 20% with a hit somewhere; the sample as a whole holds those more often. Active and inactive are the calls of the source. Rule for the calls: active = growth percent below 10; inactive = the rest.
Would you mind telling me the reported growth of each entry?

For Cc1ccc2c(n1)C(=O)C(Cl)=C(Nc1ccc(C(=O)OC(C)(C)C)cc1)C2=O , what is its reported growth?
83.9% [9.25 µM] (inactive)

Thanks! And CCCCCc1ccc(S(=O)(=O)Nc2cc(-c3csc(N)n3)ccc2OC)cc1 ?
113% (inactive)

Thanks! And CCCCCN1C(=O)/C(=c2\sc3n(c2=O)C2C(NN=3)N(CC)C(=O)N2CC)c2cccc(C)c21 (stereo not drawn) ?
96.5% (inactive)

Thanks! And COc1ccc(C(C)=C(c2ccc(OCCN3CCCCCC3)cc2)c2ccc(OCCN3CCCCCC3)cc2)cc1 ?
27.1% (inactive)

Thanks! And N#C/C(=C\c1ccc(-c2ccc(Cl)c(Cl)c2)o1)C(=O)Nc1ncc(Cc2ccc(Cl)cc2)s1 ?
68.5% (inactive)

Thanks! And O=C(Nc1ccc(Cl)c(C(F)(F)F)c1)Nc1ccc2c(ccn2C(=O)c2cccc(F)c2)c1 ?
45.9% (inactive)

Thanks! And Cn1cc(-c2cc3ncnc(Nc4ccc(CC(=O)Nc5nc(C(C)(C)C)cs5)cc4)c3s2)cn1 ?
44.7% (inactive)

Thanks! And C[C@]12CC[C@H]3[C@@H](CC=C4C[C@@H](O)CC[C@@]43C)[C@@H]1CC[C@@H]2[C@](C)(O)CCc1cccnc1 ?
84.3% (inactive)

---

system: SF-295 CNS; assay: NCI-60 one-dose screen, 48 h (100 = growth as untreated, 0 = no growth, -100 = all killed); conditions: 10 µM unless noted
Compounds without any hit were thinned out: in the full panel of roughly 83,000, 20% have a hit.
Returns: string. Value is YES if measured growth is below -10%, and NO if it is greater than or equal to it.

Check if growth falls below -10% for CCOC(=O)c1c(NCC(=O)Nc2cccc([N+](=O)[O-])c2)sc(C(C)=O)c1C .
YES

Thanks! And C[C@]12CC[C@H]3[C@@H](CC=C4C[C@@H](O)CC[C@@]43C)[C@@H]1CC[C@@H]2[C@](C)(O)CCc1cccnc1 ?
NO

Thanks! And NC1=NC2(CCCC2)N(c2ccc(S(=O)(=O)Nc3nccs3)cc2)C(N)=N1 ?
NO

Thanks! And Brc1cccc(-c2cc(-c3ccc4c(c3)OC=CO4)[nH]n2)c1 ?
NO

Thanks! And C#C[C@]1(O)CC[C@H]2[C@@H]3CC=C4c5sc(Nc6ccc(C)cn6)nc5CC[C@]4(C)[C@H]3CC[C@@]21C ?
YES

Thanks! And C#CCN(C)CCCOc1ccc(NCc2ccc(/C=C/C(=O)NO)cc2)cc1Cl ?
YES

Thanks! And COc1ccc2[nH]cc(-c3nc(N)nnc3-c3cn(C)c4ccc(Br)cc34)c2c1 ?
NO

Thanks! And Brc1ccc(-c2cc(-c3ccc4c(c3)OC=CO4)n[nH]2)s1 ?
NO

Thanks! And CC(=C(c1ccc(OCCCN(C)C)cc1)c1ccc(OCCCN(C)C)cc1)c1ccc(Cl)cc1 ?
NO

Thanks! And CC(C)(C)Nc1nc2c(OCCc3ccccc3)cccn2c1-c1cccc(Oc2ccccc2)c1 ?
NO

Thanks! And O=C(CSc1nc2ccccc2c(=O)n1-c1ccccc1)Nc1ccc(S(=O)(=O)Nc2nccs2)cc1 ?
NO

Thanks! And N#Cc1c(-c2cccs2)cc(-c2cnccn2)nc1SCC(=O)N/N=C/c1ccccc1 ?
NO

Thanks! And Cn1cc(-c2cc3ncnc(Nc4ccc(NC(=O)Nc5cc(C(C)(C)C)on5)cc4)c3s2)cn1 ?
YES

Thanks! And O=C(NCCNc1cc(-c2cn(-c3ccccc3)nc2-c2cccc(O)c2)ccn1)Nc1cc(C(F)(F)F)cc(C(F)(F)F)c1 ?
NO

Thanks! And CC1CCN(CC(=O)Nn2c(COc3ccccc3)nc3ccccc3c2=O)CC1 ?
NO

Thanks! And C#CCOc1cccc(-c2nc(N)nc(Nc3ccccc3SSc3ccccc3Nc3nc(N)nc(-c4cccc(OCC#C)c4)n3)n2)c1 ?
YES

Thanks! And CNc1sc(S(=O)(=O)NC)nc1S(=O)(=O)c1ccc(C)cc1 ?
NO

Thanks! And Cc1ccc(C)c(NC2=C(Cl)C(=O)c3nc(C)ccc3C2=O)c1 ?
YES

Thanks! And CCC1=Cc2c(OC)cccc2OC12C=Cc1c(OC)cccc1O2 (centres undefined) ?
NO

---

system: NCI-H460 lung; assay: NCI-60 one-dose screen, 48 h; conditions: 10 µM unless noted
The panel holds about 83,000 compounds, 20% with a hit somewhere; the sample as a whole holds those more often. Active and inactive are the calls of the source. Rule for the calls: active = growth percent below 10; inactive = the rest.
Use one of these outcomes when replying: active, inactive

For this molecule, state the assay outcome: O=C(/C=C/c1ccccc1)c1cccc(O)c1
inactive

Thanks! And O=C(CSc1cc[n+](CCCCO)c2ccccc12)n1ccc2ccccc21 ?
inactive

Thanks! And COc1ccccc1/C=C/C(=O)c1nnn(-c2ccc(F)cc2)c1C ?
inactive

Thanks! And N#Cc1c(-c2cccs2)c(C#N)c(=O)n(Cc2nc3ccccc3[nH]2)c1N ?
inactive

Thanks! And CN1CCN(Cc2ccc(NC(=O)c3cncc(C#Cc4cnc5ccc(OCC(F)F)nn45)c3)cc2C(F)(F)F)CC1 ?
active

Thanks! And CCOC(=O)c1cccc(NC2=C(Cl)C(=O)C(C)=C(C)C2=O)c1 ?
inactive

Thanks! And CC(C)(C)c1cc(NC(=O)Nc2ccc(-c3cn4c5c(sc4n3)CCc3c[nH]cc3-5)cc2)no1 ?
active

Thanks! And CN1CCN(Cc2ccc(NC(=O)c3cncc(C#Cc4cnc(N)nc4)c3)cc2C(F)(F)F)CC1 ?
inactive

Thanks! And Fc1cccc(Cl)c1/C=N/Nc1nc(N/N=C/c2c(F)cccc2Cl)nc(N2CCCCC2)n1 ?
inactive

Thanks! And Cc1ccccc1N1CCN(C2=C(Cl)C(=O)c3ncccc3C2=O)CC1 ?
inactive

---

system: U251 CNS; experiment: NCI-60 one-dose screen, 48 h (100 = growth as untreated, 0 = no growth, -100 = all killed); conditions: 10 µM unless noted
About 83,000 compounds went through this panel and 20% of them were active in at least one assay; those are over-represented in the sample as a whole.
MEASUREMENT_LABEL: growth (%)
Respond with the bare value in %.

For CN(C)c1cccc2c(S(=O)(=O)Nc3cccc(-c4csc(NC(=O)CCCCCN5CCN(CCO)CC5)n4)c3)cccc12 , what is its reported growth?
70.2

Thanks! And C#C[C@]1(O)CC[C@H]2[C@@H]3CC=C4c5sc(N6CCN(C)CC6)nc5CC[C@]4(C)[C@H]3CC[C@@]21C ?
21.8

Thanks! And CN1CCN(Cc2ccc(NC(=O)c3cncc(C#Cc4cnc5ccc(OCC(F)F)nn45)c3)cc2C(F)(F)F)CC1 ?
-72.7

Thanks! And Clc1cccc(/C=N/Nc2nc(N/N=C/c3cccc(Cl)c3)nc(N3CCCCC3)n2)c1 ?
91.7

Thanks! And COc1ccc(OC)c(NC(=O)CCCCCCNC(=O)C(O)(O)C(F)(F)F)c1 ?
41.8

Thanks! And O=C(/C=C/c1csc(Br)n1)NO ?
31.4

Thanks! And COc1ccc(-c2cnc(NC(=O)CCCCCCNC(=O)C(O)(O)C(F)(F)F)s2)cc1 ?
-46.4

Thanks! And NS(=O)(=O)c1ccc(Nc2nc(N/N=C/c3ccc4c(c3)OCO4)nc(Nc3ccccc3)n2)cc1 ?
55.4

Thanks! And Cc1csc(/N=C(N)/N=C(\N)c2cccs2)n1 ?
97

Thanks! And CNc1sc(S(=O)(=O)NC)nc1S(=O)(=O)c1ccc(C)cc1 ?
95.8

Thanks! And C=C(C)[C@@H]1CC[C@]2(COCCCNCCCN)CC[C@]3(C)[C@H](CC[C@@H]4[C@@]5(C)CC[C@H](O)C(C)(C)[C@@H]5CC[C@]43C)[C@@H]12 ?
-73.4

Thanks! And CS(=O)(=O)c1ccc(/C(=N/N=C(N)N)c2ccc(Cl)cc2)cc1 ?
92.8

Thanks! And CN1CCN(Cc2ccc(NC(=O)c3cncc(C#Cc4cnc5ccc(O[C@@H]6CCOC6)nn45)c3)cc2C(F)(F)F)CC1 ?
-72.9

Thanks! And C#C[C@]1(O)CC[C@H]2[C@@H]3CC=C4c5sc(Nc6cc(C)cc(C)c6)nc5CC[C@]4(C)[C@H]3CC[C@@]21C ?
8.96

Thanks! And Cc1ccc([C@H]2c3[nH]c4ccccc4c3C[C@H]3C(=O)N(CCCCCCC(=O)NO)CC(=O)N23)s1 ?
65

Thanks! And NC1=NC2(CCCC2)N(c2ccc(S(=O)(=O)Nc3nccs3)cc2)C(N)=N1 ?
104

Thanks! And O=S(=O)(NCCCNc1nccc(-c2[nH]c(-c3ccccc3)nc2-c2ccc(F)c(O)c2)n1)c1cccc2ccccc12 ?
50.5

Thanks! And Cn1c(SCC(=O)c2ccc(Br)cc2)nc2ccccc2c1=O ?
103

Thanks! And O=C(COc1ccc(/C=C2\C(=O)Nc3ccc(F)cc32)cc1)Nc1ccccc1 ?
94.4

Thanks! And COC(=O)c1cccc(NC2=CC(=O)C(C)=C(C)C2=O)c1 ?
94.7

Thanks! And O=C(/C=C/C=C/c1csc(Br)n1)NO ?
98.6

Thanks! And C#C[C@]1(O)CC[C@H]2[C@@H]3CC=C4c5sc(N(C)c6ccccc6)nc5CC[C@]4(C)[C@H]3CC[C@@]21C ?
60.6

Thanks! And Cc1ccccc1Nc1nc(SC(C)C)nc(-c2ccccc2)c1C#N ?
33.8

Thanks! And COc1ccc(C(C)=C(c2ccc(OCCN3CCCCCC3)cc2)c2ccc(OCCN3CCCCCC3)cc2)cc1 ?
-77.9

Thanks! And Fc1cc(F)cc(NNC(=S)c2ccccc2)c1 ?
28.9

Thanks! And Cn1cc(-c2nc(N)nnc2-c2c[nH]c3ccc(Br)cc23)c2cc(F)ccc21 ?
97.8

Thanks! And CN1CCN(CCNc2nc(-c3cccc(NS(=O)(=O)c4cccc5c(N(C)C)cccc45)c3)cs2)CC1 ?
65.9

Thanks! And O=C(/C=C/c1cccc(Br)c1)c1cccc(OCCCCOc2cccc(C(=O)/C=C/c3cccc(Br)c3)c2)c1 ?
105

Thanks! And CCOC(=O)c1ccc(NC2=CC(=O)C(C)=C(C)C2=O)cc1 ?
81.6

Thanks! And O=C(CSc1nc2ccccc2c(=O)n1-c1ccccc1)N/N=C/c1ccc(Oc2ccc(Br)cc2)cc1 ?
21.5

Thanks! And CN1CCN(Cc2ccc(NC(=O)c3cncc(C#Cc4cnc5ccc(N6CCOCC6)nn45)c3)cc2C(F)(F)F)CC1 ?
-92.8

Thanks! And C#CCOc1ccc(-c2csc(NC(=O)C=C)n2)cc1NS(=O)(=O)c1cccc2c(N(C)C)cccc12 ?
47.7

Thanks! And Cc1ccc(NC2=C(Cl)C(=O)c3nc(C)ccc3C2=O)c(C)c1 ?
22.6

Thanks! And Nn1c(=O)n(-c2cccc(C(F)(F)F)c2)c(=O)c2cc(-c3ccc(F)cc3F)ccc21 ?
5.07

Thanks! And Cc1ccc(C(=O)Nc2ccc(CNCCN3CCNCC3)c(C(F)(F)F)c2)cc1C#Cc1cnc2cccnn12 ?
-6.31

Thanks! And C/C(=C(\c1ccc(O)cc1)c1ccc(OCCN2CCCCCC2)cc1)c1ccc(Cl)cc1 ?
-81.1

Thanks! And Cn1cc(-c2nnc(N)nc2-c2c[nH]c3ccc(Br)cc23)c2cc(Br)ccc21 ?
99.7
